target: ΔF508-CFTR (Homo sapiens, UniProt P13569, DEL508-508); construct: host or cells: CFBE41o-, doxycycline-inducible; assay: CFTR cell surface levels using HRP-tagged ΔF508-CFTR expressing CFBE cells, in the presence of a co-corrector; assay type: cell-based; conditions: HRP-tagged ΔF508-CFTR expressing CFBE cells, in the presence of 3 μM co-corrector; read-out: EC50
Sequence (P13569 with tags, fused parts or gaps DEL508-508): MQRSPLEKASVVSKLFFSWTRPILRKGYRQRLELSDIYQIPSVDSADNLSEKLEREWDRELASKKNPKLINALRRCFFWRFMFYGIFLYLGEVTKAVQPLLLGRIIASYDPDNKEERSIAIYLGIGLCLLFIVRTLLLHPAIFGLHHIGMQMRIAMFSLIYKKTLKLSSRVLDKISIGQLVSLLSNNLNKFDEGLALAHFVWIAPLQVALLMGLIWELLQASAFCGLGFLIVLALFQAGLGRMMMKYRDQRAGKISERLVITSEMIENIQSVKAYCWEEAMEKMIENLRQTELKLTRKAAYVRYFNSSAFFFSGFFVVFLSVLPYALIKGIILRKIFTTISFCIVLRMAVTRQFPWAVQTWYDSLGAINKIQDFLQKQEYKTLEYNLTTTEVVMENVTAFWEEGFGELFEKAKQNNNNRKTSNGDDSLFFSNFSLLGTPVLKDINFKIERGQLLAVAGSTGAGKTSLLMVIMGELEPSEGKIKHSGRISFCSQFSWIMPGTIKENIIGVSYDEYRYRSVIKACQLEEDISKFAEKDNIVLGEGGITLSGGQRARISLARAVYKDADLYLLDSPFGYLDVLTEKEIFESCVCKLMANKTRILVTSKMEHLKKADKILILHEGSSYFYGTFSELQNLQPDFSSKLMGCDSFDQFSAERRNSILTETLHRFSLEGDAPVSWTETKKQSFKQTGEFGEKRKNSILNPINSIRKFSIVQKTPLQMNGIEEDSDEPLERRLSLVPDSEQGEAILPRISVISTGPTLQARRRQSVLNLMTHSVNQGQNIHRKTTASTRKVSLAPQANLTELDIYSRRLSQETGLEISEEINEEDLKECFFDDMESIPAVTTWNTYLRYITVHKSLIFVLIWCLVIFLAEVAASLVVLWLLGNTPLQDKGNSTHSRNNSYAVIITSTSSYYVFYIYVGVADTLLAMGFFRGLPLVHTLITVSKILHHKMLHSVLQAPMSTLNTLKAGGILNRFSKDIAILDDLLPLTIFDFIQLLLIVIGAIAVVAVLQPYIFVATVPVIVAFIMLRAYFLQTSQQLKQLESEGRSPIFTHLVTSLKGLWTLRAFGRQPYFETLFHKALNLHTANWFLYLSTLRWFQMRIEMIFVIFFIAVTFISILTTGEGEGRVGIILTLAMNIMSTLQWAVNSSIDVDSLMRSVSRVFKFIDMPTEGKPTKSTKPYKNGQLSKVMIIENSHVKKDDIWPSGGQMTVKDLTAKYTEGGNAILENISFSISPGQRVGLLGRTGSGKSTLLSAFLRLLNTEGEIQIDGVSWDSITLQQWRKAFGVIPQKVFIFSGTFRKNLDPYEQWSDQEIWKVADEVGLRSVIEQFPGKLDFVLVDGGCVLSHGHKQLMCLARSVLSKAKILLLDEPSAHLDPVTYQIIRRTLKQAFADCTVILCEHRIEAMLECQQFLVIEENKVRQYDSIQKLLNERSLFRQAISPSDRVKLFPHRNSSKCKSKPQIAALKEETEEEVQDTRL
Labelling: EC50 reported below 300 nM becomes rule met; at or above becomes rule not met.

Check out these entries, answers already filled in.
* COC1CCN(C2CCN(c3cc(C(=O)O)nc4c3c(C3CCC3)nn4-c3ccc(F)cc3)CC2)C1 (stereo not drawn) | rule not met
* CNC[C@@H]1CCN(c2cc(C(=O)O)nc3c2c(C2CCC2)nn3-c2ccccc2)C1 | rule not met
* O=C(O)c1cc(N2CCC(CCCN3CCCCC3)CC2)c2c(C3CCC3)nn(-c3ccccc3)c2n1 | rule met
* COCC1CCN(c2cc(C(=O)O)nc3c2c(C(C)C)nn3-c2cccc(N(C)C)c2)CC1 | rule met
* CC(C)N1CNC(=O)C12CCN(c1cc(C(=O)O)nc3c1c(C1CCC1)nn3-c1ccccc1)CC2 | rule not met
* CC(C)c1nn(C2CCCCC2)c2nc(C(=O)O)cc(-c3cccn3C)c12 | rule not met
* Cc1nn(-c2cccc(C(F)(F)F)c2)c2nc(C(=O)O)cc(-c3ccc(N4CCOCC4)cc3)c12 | rule not met
* COCCN1CCN(C2CCN(c3cc(C(=O)O)nc4c3c(C3CCC3)nn4-c3ccccc3)CC2)CC1 | rule not met
* O=C(O)c1cc(N2CCC(OCC(=O)N3CCCC3)CC2)c2c(C3CCC3)nn(-c3ccccc3)c2n1 | rule not met
* O=C(O)c1cc(N2CCC(N3CCOCC3)CC2)c2c(C3CCC3)nn(-c3ccc(C(F)(F)F)cc3)c2n1 | rule met

Check if EC50 falls below 300 nM for COCC1CCN(Cc2cc(C(=O)O)nc3c2c(C2CCC2)nn3-c2ccc(F)cc2)CC1 .
rule not met

Check if EC50 falls below 300 nM for CC(C)c1nn(-c2ccc(F)cc2F)c2nc(C(=O)O)cc(-c3ccc(N4CCC(C#N)CC4)cc3)c12 .
rule met

Check if EC50 falls below 300 nM for CN(CC1CCOCC1)c1cc(C(=O)O)nc2c1c(C1CCC1)nn2-c1ccccc1 .
rule not met

Check if EC50 falls below 300 nM for CC(C)c1nn(-c2cccc(N3CC(C)(C)C3)c2)c2nc(C(=O)O)cc(-c3ccc(N4CCOCC4)cc3)c12 .
rule not met

Check if EC50 falls below 300 nM for COCCN(C)c1ccc(-c2cc(C(=O)O)nc3c2c(C(C)C)nn3-c2cccc(N3CCCC3)c2)cn1 .
rule not met

---

So I've got a bunch of compounds here, and I need their pEC50 values.
target: ΔF508-CFTR (Homo sapiens, UniProt P13569, DEL508-508); construct: host or cells: CFBE41o-, doxycycline-inducible; experiment: CFTR cell surface levels using HRP-tagged ΔF508-CFTR expressing CFBE cells, in the presence of a co-corrector; format: cell-based; conditions: HRP-tagged ΔF508-CFTR expressing CFBE cells, in the presence of 3 μM co-corrector; read-out: EC50
Give bare numbers, as −log10 of the molar value.

• CC(C)(C)OC(=O)N1CCC(Oc2nn(-c3ccccc3)c3nc(C(=O)O)cc(-c4ccc(N5CCC(C#N)CC5)nc4)c23)CC1 [compound 553] = 6.93
• O=C(O)c1cc(N2CCC(N3CCC(O)CC3)CC2)c2c(C3CCC3)nn(-c3ccc(F)cc3)c2n1 [compound 898] = 5.48
• COC1CCC(Oc2cc(C(=O)O)nc3c2c(C)nn3-c2ccccc2)CC1 (centres unmarked) [compound 376] = 5.94
• CO[C@@H]1CCN(c2cc(C(=O)O)nc3c2c(C)nn3-c2ccccc2)C1 [compound 295] = 5.60

Quick request: pEC50 for each listed item, please.
1. COCCOCC1(F)CCCN(c2cc(C(=O)O)nc3c2c(C(C)C)nn3-c2ccc(F)cc2)C1 (centres unmarked) [compound 670]
2. CN1C(=O)CN(CC2CCN(c3cc(C(=O)O)nc4c3c(C3CCC3)nn4-c3ccccc3)CC2)CC12COC2 [compound 845]
3. Cc1nn(-c2ccccc2)c2nc(C(=O)O)cc(N3CCN(CC#N)CC3)c12 [compound 136]
4. O=C(O)c1cc(N2CCC3(CCCO3)C2)c2c(C3CCC3)nn(-c3ccccc3)c2n1 (centres unmarked) [compound 518]

6.66
5.96
5.48
6.27

---

target: ΔF508-CFTR (Homo sapiens, UniProt P13569, DEL508-508); construct: host or cells: CFBE41o-, doxycycline-inducible; assay: CFTR cell surface levels using HRP-tagged ΔF508-CFTR expressing CFBE cells, in the presence of a co-corrector; format: cell-based; settings: HRP-tagged ΔF508-CFTR expressing CFBE cells, in the presence of 3 μM co-corrector; read-out: EC50
So I've got a bunch of molecules here, and I need their EC50 values.

Quick request: EC50 for each listed item, please.
1. O=C(O)c1cc(OC2CC3(COC3)C2)c2c(C3CCC3)nn(-c3ccccc3)c2n1 [compound 495]
2. CC(C)c1nn(C2CCCCC2)c2nc(C(=O)O)cc(-c3ccc(N4CCOCC4)nc3)c12 [compound 81]
3. CC(C)c1nn(-c2ccc(F)cc2)c2nc(C(=O)O)cc(N3CCN4CCC[C@@H]4C3)c12 [compound 770]

307 nM
570 nM
900 nM

Quick request: EC50 for each listed item, please.
1. Cc1nn(-c2ccccc2)c2nc(C(=O)O)cc(OC3COC3)c12 [compound 341]
2. CN(C1CCN(C2CN(c3cc(C(=O)O)nc4c3c(C3CCC3)nn4-c3ccccc3)C2)CC1)C1COC1 [compound 724]
3. Cc1nn(-c2ccccc2)c2nc(C(=O)O)cc(N3CCN(CC(=O)N(C)C)CC3)c12 [compound 323]

4090 nM
1670 nM
> 10000 nM

Quick request: EC50 for each listed item, please.
1. O=C(O)c1cc(N2CCC(N3CCOCC3)CC2)c2c(C3CCC3)nn(-c3cc(F)cc(F)c3)c2n1 [compound 905]
2. O=C(O)c1cc(N2CCC(N3CCCC3)CC2)c2c(C3CCC3)nn(-c3ccccc3)c2n1 [compound 443]

["145 nM", "1470 nM"]

---

Molecular target: ΔF508-CFTR (Homo sapiens, UniProt P13569, DEL508-508)
Construct: host or cells: CFBE41o-, doxycycline-inducible
Assay: CFTR cell surface levels using HRP-tagged ΔF508-CFTR expressing CFBE cells, in the presence of a co-corrector
Format: cell-based
Details: HRP-tagged ΔF508-CFTR expressing CFBE cells, in the presence of 3 μM co-corrector; read-out: EC50
Excerpt: Measuring CFTR Cell Surface Levels Using HRP-Tagged AF508-CFTR Expressing CFBE Cells The HRP-tagged AF508-CFTR cell assay measures the expression of CFTR-ΔF508 at the plasma membrane. […] When HRP-tagged AF508-CFTR is present at the plasma membrane, the HRP enzyme activity can be measured. The amount of CFTR-ΔF508 that can be rescued to the plasma membrane is correlated with the amount of functional enzyme that can be measured. […]
OBSERVABLE: EC50
Entry format: amount then unit.

These recorded examples may help you get a feel for the data.
- O=C(O)c1cc(N2CCC(N3CCOCC3)CC2)c2c(C3CCC3)nn(-c3ccc(OCCF)nc3)c2n1 [compound 917]: 1670 nM
- CC(C)c1nn(-c2ccc(F)cc2)c2nc(C(=O)O)cc(N3CCC(CC4CCCCC4)CC3)c12 [compound 780]: 124 nM
- Cc1nn(-c2ccccc2)c2nc(C(=O)O)cc(OCCC3CC(F)(F)C3)c12 [compound 347]: 1410 nM
- Cc1nn(-c2ccccc2)c2nc(C(=O)O)cc(OCC3CCC(F)(F)C3)c12 (stereo not shown) [compound 382]: 1410 nM

Quick request: EC50 for each listed item, please.
1. Cc1nn(-c2ccccc2)c2nc(C(=O)O)cc(-c3ccc(N4CCC(F)(F)C4)cc3)c12 [compound 111]
2. CN1[C@@H]2CC[C@H]1C[C@@H](Oc1cc(C(=O)O)nc3c1c(C1CCC1)nn3-c1ccccc1)C2 [compound 621]

1. 424 nM
2. 3140 nM

---

So I've got a bunch of molecules here, and I need their pEC50 values.
molecular target: ΔF508-CFTR (Homo sapiens, UniProt P13569, DEL508-508); construct: host or cells: CFBE41o-, doxycycline-inducible; test: CFTR cell surface levels using HRP-tagged ΔF508-CFTR expressing CFBE cells, in the presence of a co-corrector; type: cell-based; details: HRP-tagged ΔF508-CFTR expressing CFBE cells, in the presence of 3 μM co-corrector; read-out: EC50
One number for each entry, as −log10 of the molar value.

* CC1(C)CC(c2nn(-c3ccccc3)c3nc(C(=O)O)cc(-c4ccc(N5CCC(C#N)CC5)nc4)c23)C1 | 6.61
* COCCCN1CCN(c2cc(C(=O)O)nc3c2c(C(C)C)nn3-c2ccc(F)cc2)CC1 | 6.27
* CC(C)N1CCN(C2CCN(c3cc(C(=O)O)nc4c3c(C3CCC3)nn4-c3ccc(F)cc3)CC2)CC1 | 6.71

Quick request: pEC50 for each listed item, please.
1. COCC1(C)CN(c2cc(C(=O)O)nc3c2c(C)nn3-c2ccccc2)C1
2. O=C(O)c1cc(N2CCN(CC(F)(F)F)CC2)c2c(C3CCC3)nn(-c3ccccc3)c2n1

1: 5.74; 2: 6.37

Quick request: pEC50 for each listed item, please.
1. CCN(CC)C1CCN(c2cc(C(=O)O)nc3c2c(C2CCC2)nn3-c2ccccc2)CC1
2. CC(C)c1nn(-c2ccc(F)cc2)c2nc(C(=O)O)cc(N3CCCN(C(C)C)CC3)c12

[6.10, 5.78]

Quick request: pEC50 for each listed item, please.
1. COCC1CCN(c2cc(C(=O)O)nc3c2c(C(C)C)nn3CC2CCC2)CC1
2. Cc1cccc(-n2nc(C)c3c(-c4ccc(N5CCOCC5)cc4)cc(C(=O)O)nc32)c1
3. Cc1nn(-c2ccccc2)c2nc(C(=O)O)cc(-c3ccc(N4CCC(O)C4)cc3)c12 (stereo not shown)
4. CC1(c2nn(-c3ccccc3)c3nc(C(=O)O)cc(-c4ccc(N5CCOCC5)cc4)c23)COC1
5. CC(C)c1nn(C2CCCOC2)c2nc(C(=O)O)cc(-c3ccc(N4CCC(C#N)CC4)nc3)c12 (stereo not shown)

1: 5.73; 2: 6.14; 3: 5.92; 4: 5.93; 5: 5.81
